System: H9
Experiment: Percentage of gag protein expression using H9 cells at 200 uM on 10th day
Assay type: functional, Homo sapiens
Could you please report measured Expression for the items listed next?
I only need the number, in %, no unit after it.

## Task For the compound "O=c1[nH]cnc2c1ncn2[C@H]1CC[C@@H](CO)O1" , what Expression is on record?
## Result 0

## Task Further, for "Nc1ncnc2c1ncn2[C@@H]1O[C@H](CO)C[C@@H]1F" ?
## Result 0

## Task Further, for OCC1CC(F)C(n2cnc3c(O)ncnc32)O1 (centres undefined) ?
## Result 10

## Task Further, for "Nc1ncnc2c1ncn2[C@H]1CC[C@@H](CO)O1" ?
## Result 0
